system: Cryptococcus neoformans var. grubii ATCC 208821; test: CO-ADD MIC assay, C. neoformans var. grubii ATCC 208821; format: cell-based; settings: Cryptococcus neoformans, ATCC208821, Table S1
Listing of entries alongside the reported MIC.
Entry rule: numbers only, all in µg/mL.

Sample records with MIC:
// fetch MIC given entry CC(C)CCc1cnnn1-c1ccccc1OCC(=O)N[C@H](CCCCN)C(=O)N[C@H](CCCNC(=N)N)Cn1cc(C2CCCCC2)nn1
16

// fetch MIC given entry CC(C)CCc1cn(-c2ccccc2OCC(=O)N[C@H](CCCNC(=N)N)Cn2cc(C3CCCCC3)nn2)nn1
32

Proceed to the following item.
// fetch MIC given entry CC(C)CCc1cnnn1-c1ccccc1OCC(=O)N[C@H](CCCNC(=N)N)Cn1cc(Cc2ccccc2)nn1.Cl
32

====

Listed here: molecules with reported MIC for C. albicans ATCC 90028.
Entry rule: numbers only, all in µg/mL.

Sample records with MIC:
// fetch MIC given entry OC(Cn1cncn1)(Cn1cncn1)c1ccc(F)cc1F [flucona-zole, fluconazole, reference compound]
0.125

// fetch MIC given entry CC(C)CCc1cnnn1-c1c(OCC(=O)N[C@H](CCCNC(=N)N)Cn2cc(CC3CCCCC3)nn2)ccc2ccccc12.Cl
16

// fetch MIC given entry CC(C)CCc1cnnn1-c1c(OCC(=O)N[C@H](CCCNC(=N)N)Cn2cc(Cc3ccccc3)nn2)ccc2ccccc12.Cl
32

// fetch MIC given entry Cl.Cl.N=C(N)NCCC[C@H](Cn1cc(Cc2ccccc2)nn1)NC(=O)[C@@H](CCCCN)NC(=O)COc1ccccc1-c1cn(Cc2ccccc2)nn1
32

// fetch MIC given entry CC(C)CCc1cnnn1-c1c(OCC(=O)N[C@H](CCCNC(=N)N)Cn2cc(C3CCCCC3)nn2)ccc2ccccc12
32

Proceed to the following item.
// fetch MIC given entry CC(C)CCc1cnnn1-c1ccccc1OCC(=O)N[C@H](CCCCN)C(=O)N[C@H](CCCNC(=N)N)Cn1cc(C2CCCCC2)nn1
16

====

tested on: Cryptococcus neoformans var. grubii ATCC 208821; assay: CO-ADD MIC assay, C. neoformans var. grubii ATCC 208821; type: cell-based; conditions: Table S1
property_measured: MIC C. neoformans var. grubii ATCC 208821 (µg/mL)
Entry rule: numbers only, all in µg/mL.

Sample records with MIC C. neoformans var. grubii ATCC 208821:
// fetch MIC C. neoformans var. grubii ATCC 208821 given entry CC(C)CCc1cnnn1-c1c(OCC(=O)N[C@H](CCCCN)C(=O)N[C@H](CCCNC(=N)N)Cn2cc(CC3CCCCC3)nn2)ccc2ccccc12
8

// fetch MIC C. neoformans var. grubii ATCC 208821 given entry CC(C)CCc1cnnn1-c1c(OCC(=O)N[C@H](CCCCN)C(=O)N[C@H](CCCNC(=N)N)Cn2cc(C3CCCCC3)nn2)ccc2ccccc12.Cl.Cl
8

Continuing:
// fetch MIC C. neoformans var. grubii ATCC 208821 given entry CC(C)CCc1cn(-c2c(OCC(=O)N[C@H](CCCCN)C(=O)N[C@H](CCCNC(=N)N)Cn3cc(CC4CCCCC4)nn3)ccc3ccccc23)nn1
4

====

tested on: S. pneumoniae ATCC 49619; experiment: Primary MIC assay, S. pneumoniae ATCC 49619; assay type: cell-based, Streptococcus pneumoniae; settings: Streptococcus pneumoniae, ATCC49619; Table 1; read-out: MIC S. pneumoniae ATCC 49619
property_measured: MIC (mg/L)
Entry rule: numbers only, all in mg/L.

// fetch MIC given entry CC(C)CCc1cnnn1-c1c(OCC(=O)N[C@H](CCCCN)C(=O)N[C@H](CCCNC(=N)N)Cn2cc(CC3CCCCC3)nn2)ccc2ccccc12 [Compound 44]
4

// fetch MIC given entry CC(C)CCc1cn(-c2ccccc2OCC(=O)N[C@H](CCCCN)C(=O)N[C@H](CCCNC(=N)N)Cn2cc(Cc3ccccc3)nn2)nn1 [Compound 36]
16

// fetch MIC given entry CC(C)CCc1cn(-c2ccccc2OCC(=O)N[C@H](CCCNC(=N)N)Cn2cc(-c3ccc(F)cc3)nn2)nn1.Cl [Compound 12]
16

// fetch MIC given entry Cl.Cl.N=C(N)NCCC[C@H](Cn1cc(Cc2ccccc2)nn1)NC(=O)[C@@H](CCCCN)NC(=O)COc1ccccc1-c1cn(Cc2ccccc2)nn1 [Compound 46]
16

// fetch MIC given entry CC(C)CCc1cnnn1-c1c(OCC(=O)N[C@H](CCCCN)C(=O)N[C@H](CCCNC(=N)N)Cn2cc(Cc3ccccc3)nn2)ccc2ccccc12.Cl.Cl [Compound 45]
4

Proceed to the following item.
// fetch MIC given entry CC(C)CCc1cnnn1-c1c(OCC(=O)N[C@H](CCCNC(=N)N)Cn2cc(C3CCCCC3)nn2)ccc2ccccc12 [Compound 24]
8
